# System: Mus musculus
# PROTOCOL: Potentiation of yohimbine toxicity in ip dosed aggregated albino CF1 mouse
# Type: organism-based
RECORDED_ENDPOINT: ED50

compound="CC1=NC(c2ccccc2)c2cc(Cl)ccc2-n2c1nnc2N1CCN(C)CC1 (configuration not stated)" assay_result="> 50 mg/kg"
compound=c1ccc(C2=NCc3nnc(N4CCOCC4)n3-c3ccccc32)cc1 assay_result="> 50 mg/kg"
compound=OCc1nnc2n1-c1ccc(Cl)cc1C(c1ccccc1Cl)=NC2 assay_result="> 50 mg/kg"
compound=Cc1nnc2n1-c1ccc(N)cc1C(c1ccccc1Cl)=NC2 assay_result="> 50 mg/kg"
compound=CN1CCN(c2nnc3n2-c2ccccc2C(c2ccccc2)=NC3)CC1 assay_result="> 50 mg/kg"
compound=CN1C(=O)CN=C(c2ccccc2)c2cc(Cl)ccc21 assay_result="> 50 mg/kg"
compound=COC(=O)Cc1nnc2n1-c1ccc(Cl)cc1C(c1ccccc1)=NC2 assay_result="> 50 mg/kg"
compound=Clc1ccc2c(c1)C(c1ccccc1)=NCc1nnc(C(Cl)Cl)n1-2 assay_result="> 50 mg/kg"
compound="CC1=NC(c2ccccc2)c2cc(Cl)ccc2-n2c1nnc2N1CCOCC1 (configuration not stated)" assay_result="> 50 mg/kg"
compound=FC(F)(F)c1nnc2n1-c1ccc(Cl)cc1C(c1ccccc1)=NC2 assay_result="> 50 mg/kg"
compound=Clc1ccccc1C1=NCc2nnc(Br)n2-c2ccccc21 assay_result="> 50 mg/kg"
compound=N#Cc1nnc2n1-c1ccc(Cl)cc1C(c1ccccc1)=NC2 assay_result="> 50 mg/kg"
compound=Cc1nnc2n1-c1ccc(Cl)cc1C(c1ccccc1Cl)=NC2 assay_result="> 50 mg/kg"
compound=CCN1CCN(c2nnc3n2-c2ccc(Cl)cc2C(c2ccccc2)=NC3)CC1 assay_result="> 50 mg/kg"
compound=CN(C)CCSc1nnc2n1-c1ccc(Cl)cc1C(c1ccccc1)=NC2 assay_result="> 50 mg/kg"
compound=OCCN1CCN(c2nnc3n2-c2ccc(Cl)cc2C(c2ccccc2)=NC3)CC1 assay_result="> 50 mg/kg"
compound=Clc1ccc2c(c1)C(c1ccccc1Cl)=NCc1nnc(N3CCOCC3)n1-2 assay_result="> 50 mg/kg"
compound=Clc1ccc2c(c1)C(c1ccccc1)=NCc1nnc(Br)n1-2 assay_result="> 50 mg/kg"
compound=Clc1ccc2c(c1)C(c1ccccc1)=NCc1nnc(N3CCCC3)n1-2 assay_result="> 50 mg/kg"
compound=Cc1nnc2n1-c1ccc(Br)cc1C(c1ccccc1)=NC2 assay_result="> 50 mg/kg"
compound=CN(C)C(=O)Cc1nnc2n1-c1ccc(Cl)cc1C(c1ccccc1)=NC2 assay_result="> 50 mg/kg"
compound="CC1N=C(c2ccccc2)c2cc(Cl)ccc2-n2c1nnc2N1CCN(C)CC1 (configuration not stated)" assay_result="8.8 mg/kg"
